Test system: SW-620 colon
assay: NCI tumour cell line growth inhibition, 48 h; in the data active means GI50 below about 0.43 µM; inactive means the rest
Outcomes: active, inactive

{"compound": "C=C1C(=O)O[C@H]2[C@H]1CC/C(CNS(=O)(=O)c1ccc3ccccc3c1)=C\\CC[C@@]1(C)O[C@@H]21", "test-target": "SW-620 colon", "category": "inactive"}
{"compound": "c1cc(C2CCCCC2)ccc1OCCCCCCN1CCNCC1", "test-target": "SW-620 colon", "category": "inactive"}
{"compound": "COC(=O)Nc1nc2ccc(Oc3ccc(NC(=O)Nc4cccc(Br)c4)cc3)cc2[nH]1", "test-target": "SW-620 colon", "category": "inactive"}
{"compound": "NC1CCCCC1N.O=C([O-])P(=O)([O-])[O-].[Na+].[Pt+4] (centres undefined)", "test-target": "SW-620 colon", "category": "inactive"}
{"compound": "C[C@@H]1COCCN1c1nc(-c2cnc(N)cc2C(F)F)nc(N2[C@H](C)COC[C@@H]2C)n1", "test-target": "SW-620 colon", "category": "active"}
{"compound": "CCN(CC)CCOc1ccc(Nc2ncc3cc(-c4c(Cl)cccc4Cl)c(=O)n(CCOC)c3n2)cc1", "test-target": "SW-620 colon", "category": "inactive"}
{"compound": "CCCCCCCCCCCCCCCC(=O)OCC1OC(n2cnc3c(=S)nc(N)[nH]c32)C(OC(=O)CCCCCCCCCCCCCCC)C1OC(=O)CCCCCCCCCCCCCCC (centres undefined)", "test-target": "SW-620 colon", "category": "inactive"}
{"compound": "CCCCCCOc1ccc(/C=N/NC(N)=S)cc1", "test-target": "SW-620 colon", "category": "inactive"}
{"compound": "Cc1[nH]c(C(=O)Nc2ccc(C(=O)N3CCNCC3)cc2OC(C)C)c(Cl)c1Cl", "test-target": "SW-620 colon", "category": "inactive"}

Cited source for all entries: PubChem BioAssay (NCI)
